Study System: GABA-A receptor; alpha-3/beta-3/gamma-2 (Homo sapiens, UniProt P18507+P28472+P34903)
Method Description: Displacement of [3H]-Ro- 15-1788 from human GABA-A alpha-3-beta-3-gamma-2 receptor subunits expressed in Xenopus oocytes
Labelling field: enter T if recorded Ki is less than 8 nM. Enter F if it equals or exceeds that cut-off.

Check out these entries, answers already filled in.
# Smiles Record, Study System, Label
data = [
    ("Cc1cccc(COc2nn3c(-c4cc(C)on4)nnc3c3ccccc23)n1", "GABA-A receptor; alpha-3/beta-3/gamma-2 (Homo sapiens, UniProt P18507+P28472+P34903)", "T"),
    ("Cc1cccc(COc2nn3c(-c4ccsc4)nnc3c3c2C2CCC3CC2)n1", "GABA-A receptor; alpha-3/beta-3/gamma-2 (Homo sapiens, UniProt P18507+P28472+P34903)", "F"),
    ("Cc1cccc(COc2nn3c(-c4nc(C)no4)nnc3c3c2C2CCC3CC2)n1", "GABA-A receptor; alpha-3/beta-3/gamma-2 (Homo sapiens, UniProt P18507+P28472+P34903)", "T"),
    ("Cc1cc(-c2nnc3c4ccccc4c(OCc4cn(C)nn4)nn23)no1", "GABA-A receptor; alpha-3/beta-3/gamma-2 (Homo sapiens, UniProt P18507+P28472+P34903)", "T"),
]

// next entry
Ask: Please determine if `Cc1cccc(COc2nn3c(-c4cc(C)on4)nnc3c3c2C2CCC3CC2)n1` is below 8 nM in terms of Ki.
Result: F

---

Provide the reported pKi of each item.
Study System: GABA-A receptor; alpha-2/beta-3/gamma-2 (Homo sapiens, UniProt P18507+P28472+P47869)
Sequence (P18507 whole entry): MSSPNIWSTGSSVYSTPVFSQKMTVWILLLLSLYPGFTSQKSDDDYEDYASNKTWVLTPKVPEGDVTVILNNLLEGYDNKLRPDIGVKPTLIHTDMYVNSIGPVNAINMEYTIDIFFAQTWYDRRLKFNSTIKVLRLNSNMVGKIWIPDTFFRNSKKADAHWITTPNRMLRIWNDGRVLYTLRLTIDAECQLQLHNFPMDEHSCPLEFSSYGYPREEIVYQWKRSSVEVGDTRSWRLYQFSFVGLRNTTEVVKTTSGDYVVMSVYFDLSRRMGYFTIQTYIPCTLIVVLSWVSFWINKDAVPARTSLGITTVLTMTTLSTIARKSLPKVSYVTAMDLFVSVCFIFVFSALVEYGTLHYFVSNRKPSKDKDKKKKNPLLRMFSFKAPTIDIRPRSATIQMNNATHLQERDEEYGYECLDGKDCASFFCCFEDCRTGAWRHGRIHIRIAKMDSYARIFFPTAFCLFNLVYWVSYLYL
Sequence (P28472 whole entry): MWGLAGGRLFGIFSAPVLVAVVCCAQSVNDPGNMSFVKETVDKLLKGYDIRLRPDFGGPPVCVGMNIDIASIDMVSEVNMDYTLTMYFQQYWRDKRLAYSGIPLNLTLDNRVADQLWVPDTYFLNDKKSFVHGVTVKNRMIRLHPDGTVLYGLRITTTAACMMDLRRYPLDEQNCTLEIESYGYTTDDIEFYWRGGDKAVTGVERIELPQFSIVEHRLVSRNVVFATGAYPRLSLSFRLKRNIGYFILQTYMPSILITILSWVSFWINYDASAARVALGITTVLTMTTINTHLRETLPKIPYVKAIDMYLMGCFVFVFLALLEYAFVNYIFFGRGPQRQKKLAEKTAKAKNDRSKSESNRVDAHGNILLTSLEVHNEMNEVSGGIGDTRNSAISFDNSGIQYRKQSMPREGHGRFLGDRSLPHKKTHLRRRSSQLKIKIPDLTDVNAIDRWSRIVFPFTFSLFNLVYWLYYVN
Sequence (P47869 whole entry): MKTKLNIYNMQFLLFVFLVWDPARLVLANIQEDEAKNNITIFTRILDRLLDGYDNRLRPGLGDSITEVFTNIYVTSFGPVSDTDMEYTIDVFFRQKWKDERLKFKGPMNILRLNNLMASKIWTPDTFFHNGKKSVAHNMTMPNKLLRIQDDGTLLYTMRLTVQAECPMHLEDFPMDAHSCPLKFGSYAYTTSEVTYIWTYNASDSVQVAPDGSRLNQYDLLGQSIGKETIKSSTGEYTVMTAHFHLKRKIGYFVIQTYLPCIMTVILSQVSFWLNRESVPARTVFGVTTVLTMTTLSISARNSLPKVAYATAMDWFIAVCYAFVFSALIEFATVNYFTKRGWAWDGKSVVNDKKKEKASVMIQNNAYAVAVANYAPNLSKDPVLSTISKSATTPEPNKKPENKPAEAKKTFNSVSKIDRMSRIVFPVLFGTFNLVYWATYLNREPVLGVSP
Method Description: Displacement of [3H]-Ro- 15-1788 from human GABA-A alpha-2-beta-3-gamma-2 receptor subunits expressed in Xenopus oocytes
Give bare numbers, as −log10 of the molar value.

Below, 3 molecules whose answers are already recorded.
# Smiles Record, Study System, pKi
measured = [
    ("Cc1cc(-c2nnc3c4ccccc4c(OCc4cn(C)nn4)nn23)no1", "GABA-A receptor; alpha-2/beta-3/gamma-2 (Homo sapiens, UniProt P18507+P28472+P47869)", 9.24),
    ("CCc1c(C(=O)OC)ncc2[nH]c3cc(OC)c(OC)cc3c12", "GABA-A receptor; alpha-2/beta-3/gamma-2 (Homo sapiens, UniProt P18507+P28472+P47869)", 7.96),
    ("Cc1cccc(COc2nn3c(-c4cc(C)on4)nnc3c3ccccc23)n1", "GABA-A receptor; alpha-2/beta-3/gamma-2 (Homo sapiens, UniProt P18507+P28472+P47869)", 8.80),
]

Dear colleague, could you send me pKi for each of the items below? Thanks.
1. Cc1cccc(COc2nn3c(-c4ccccc4)nnc3c3c2C2CCC3CC2)n1
2. Cc1cc(-c2nnc3c4ccccc4c(OCc4ccccn4)nn23)no1
3. Cc1cccc(COc2nn3c(-c4nc(C)no4)nnc3c3c2C2CCC3CC2)n1
4. Cc1cccc(COc2nn3c(-c4cc(C)on4)nnc3c3c2C2CCC3CC2)n1

Result:
7.34
8.82
7.77
7.07

Dear colleague, could you send me pKi for each of the items below? Thanks.
1. Cc1cccc(COc2nn3c(-c4ccsc4)nnc3c3c2C2CCC3CC2)n1
2. Cc1cccc(COc2nn3c(-c4ccoc4)nnc3c3c2C2CCC3CC2)n1
3. Cc1cc(-c2nnc3c4ccccc4c(OCc4cnn(C)n4)nn23)no1
4. Cc1cc(-c2nnc3c4ccccc4c(OCc4cnnn4C)nn23)no1

Result:
[6.96, 7.20, 9.19, 8.55]

---

Provide the reported pKi of each item.
Study System: GABA-A receptor; alpha-1/beta-3/gamma-2 (Homo sapiens, UniProt P14867+P18507+P28472)
Sequence (P14867 whole entry, one chain of several): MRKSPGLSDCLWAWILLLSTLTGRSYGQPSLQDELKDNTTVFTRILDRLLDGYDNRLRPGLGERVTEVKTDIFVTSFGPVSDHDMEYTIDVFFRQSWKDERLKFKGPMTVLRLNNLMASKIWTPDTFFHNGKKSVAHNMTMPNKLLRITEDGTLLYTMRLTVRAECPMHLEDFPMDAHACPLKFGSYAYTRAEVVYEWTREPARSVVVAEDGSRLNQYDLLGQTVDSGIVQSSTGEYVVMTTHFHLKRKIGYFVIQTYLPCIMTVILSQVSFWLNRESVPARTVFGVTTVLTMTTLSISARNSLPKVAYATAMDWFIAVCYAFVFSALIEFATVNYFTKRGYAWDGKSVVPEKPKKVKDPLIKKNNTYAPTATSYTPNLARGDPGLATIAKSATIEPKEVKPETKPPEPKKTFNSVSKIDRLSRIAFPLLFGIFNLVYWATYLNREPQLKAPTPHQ
Method Description: Displacement of [3H]-Ro- 15-1788 from human GABA-A alpha-1-beta-3-gamma-2 receptor subunits expressed in Xenopus oocytes
Type: cell-based, Oocyte
Answers are plain numbers, as −log10 of the molar value.

# Smiles Record, pKi
data = [
    ("CCc1c(C(=O)OC)ncc2[nH]c3cc(OC)c(OC)cc3c12", 7.80),
    ("Cc1cccc(COc2nn3c(-c4ccoc4)nnc3c3c2C2CCC3CC2)n1", 6.60),
    ("Cc1cc(-c2nnc3c4ccccc4c(OCc4cnn(C)n4)nn23)no1", 8.89),
    ("Cc1cccc(COc2nn3c(-c4ccccc4)nnc3c3c2C2CCC3CC2)n1", 6.77),
    ("Cc1cccc(COc2nn3c(-c4ccsc4)nnc3c3c2C2CCC3CC2)n1", 6.57),
    ("Cc1cccc(COc2nn3c(-c4cc(C)on4)nnc3c3ccccc23)n1", 9.06),
    ("Cc1cc(-c2nnc3c4ccccc4c(OCc4ccccn4)nn23)no1", 9.03),
    ("Cc1cc(-c2nnc3c4ccccc4c(OCc4cnnn4C)nn23)no1", 8.38),
    ("Cc1cc(-c2nnc3c4ccccc4c(OCc4cn(C)nn4)nn23)no1", 9.06),
    ("Cc1cccc(COc2nn3c(-c4nc(C)no4)nnc3c3c2C2CCC3CC2)n1", 7.13),
]

Let's switch to this molecule now.
Value of pKi reported for the molecule `Cc1cccc(COc2nn3c(-c4cc(C)on4)nnc3c3c2C2CCC3CC2)n1` is 6.55

---

Study System: GABA-A receptor; alpha-5/beta-3/gamma-2 (Homo sapiens, UniProt P18507+P28472+P31644)
Method Description: Displacement of [3H]-Ro- 15-1788 from human GABA-A alpha-5-beta-3-gamma-2 receptor subunits expressed in Xenopus oocytes
Output schema: class label derived from Ki. Mapping: low bin: < 0.9 nM; mid bin: ≥ 0.9 nM and < 3 nM; high bin: ≥ 3 nM

# Smiles Record, Label
data = [
    ("Cc1cccc(COc2nn3c(-c4ccsc4)nnc3c3c2C2CCC3CC2)n1", "high bin"),
    ("Cc1cccc(COc2nn3c(-c4ccoc4)nnc3c3c2C2CCC3CC2)n1", "high bin"),
    ("Cc1cc(-c2nnc3c4ccccc4c(OCc4cnnn4C)nn23)no1", "mid bin"),
    ("Cc1cccc(COc2nn3c(-c4cc(C)on4)nnc3c3ccccc23)n1", "low bin"),
    ("Cc1cc(-c2nnc3c4ccccc4c(OCc4cnn(C)n4)nn23)no1", "low bin"),
    ("Cc1cc(-c2nnc3c4ccccc4c(OCc4cn(C)nn4)nn23)no1", "low bin"),
    ("Cc1cccc(COc2nn3c(-c4cc(C)on4)nnc3c3c2C2CCC3CC2)n1", "high bin"),
    ("Cc1cccc(COc2nn3c(-c4ccccc4)nnc3c3c2C2CCC3CC2)n1", "mid bin"),
]

Ask: Form: Item = `Cc1cccc(COc2nn3c(-c4nc(C)no4)nnc3c3c2C2CCC3CC2)n1` ; Class = ?
Result: mid bin

Ask: Form: Item = `CCc1c(C(=O)OC)ncc2[nH]c3cc(OC)c(OC)cc3c12` ; Class = ?
Result: mid bin

Ask: Form: Item = `Cc1cc(-c2nnc3c4ccccc4c(OCc4ccccn4)nn23)no1` ; Class = ?
Result: low bin

These data points were gathered from ChEMBL document CHEMBL1149152.
